Here, each record is paired with measured Kd data.
- target.under.test: T1, cynomolgus monkey BCMA (cynomolgus monkey, UniProt A0A2K5UD97 1-53)
- T1 construct: Soluble analyte in SPR; construct not described; also called cyBCMA; Cyno BCMA
- assay.details: SPR, IgG immobilised, 37 C
The reply should contain only the number, in nM.

{"binder": "L3.PY/H2.HA (antibody, V domains shown, IgG) VH: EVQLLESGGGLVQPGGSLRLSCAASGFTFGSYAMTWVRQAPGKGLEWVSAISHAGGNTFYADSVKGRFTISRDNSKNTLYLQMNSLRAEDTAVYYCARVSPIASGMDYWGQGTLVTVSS VL: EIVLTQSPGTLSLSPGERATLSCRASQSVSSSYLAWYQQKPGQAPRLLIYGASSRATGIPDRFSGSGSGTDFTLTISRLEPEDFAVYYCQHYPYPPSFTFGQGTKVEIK", "obs.value": 3.79}

Continue with the next binder.
Q: Entry L3.PY/L1.AH/H2.QR (antibody, V domains shown, IgG) VH: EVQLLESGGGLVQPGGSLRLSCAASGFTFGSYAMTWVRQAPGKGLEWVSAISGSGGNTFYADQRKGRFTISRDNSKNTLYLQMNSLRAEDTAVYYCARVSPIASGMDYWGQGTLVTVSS VL: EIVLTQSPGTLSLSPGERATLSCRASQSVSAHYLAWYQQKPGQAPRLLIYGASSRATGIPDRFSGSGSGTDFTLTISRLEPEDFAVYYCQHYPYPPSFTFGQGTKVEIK : reported Kd = ?
Result: 2.23
